Every entry's value here was drawn from PubChem BioAssay AID1963838.

Test system: 855422-203-R-J1-PDC complex spheroid viability
Experiment: Anticancer human tumor 855422-203-R-J1-PDC patient-derived bladder carcinoma cell line growth inhibition [POLQ]; active = viability on the fitted dose curve at most 10% of control; inactive = the rest
Conditions: second compound 1 µM; first compound 3.16 µM
Thanks in advance; please answer with one of these: active, inactive

// below: answered molecules
input: Hi team, can someone confirm the assay call for CC1COCCN1c1cc(C2(S(C)(=N)=O)CC2)nc(-c2ccnc3[nH]ccc23)n1 (configuration not stated) + Cc1cccc(N(C)C(=O)C2C(O)CCN2c2nc(C)cc(C(F)(F)F)c2C#N)c1 ?
output: inactive

input: And CC(C)n1c(=O)n(C)c2cnc3cc(F)c(-c4ccc(OCCCN5CCCCC5)nc4)cc3c21 + Cc1cccc(N(C)C(=O)C2C(O)CCN2c2nc(C)cc(C(F)(F)F)c2C#N)c1 ?
output: inactive

input: And CC1COCCN1c1cc(C2(S(C)(=N)=O)CC2)nc(-c2ccnc3[nH]ccc23)n1 (configuration not stated) + Nc1ccc(C#CCN(C(=O)Cc2ncc(C(F)(F)F)cc2C(F)(F)F)c2ccc(F)cc2)nn1 ?
output: inactive

input: And O=c1[nH]cc(F)c(=O)[nH]1 + COC1C(OC(N)=O)C(O)C(Oc2ccc3c(O)c(NC(=O)c4ccc(O)c(CC=C(C)C)c4)c(=O)oc3c2C)OC1(C)C ?
output: inactive

input: And CC1COCCN1c1cc(C2(O)CC3CCC(C2)O3)c2cnn(-c3ccn[nH]3)c2n1 (configuration not stated) + COC1C(OC(N)=O)C(O)C(Oc2ccc3c(O)c(NC(=O)c4ccc(O)c(CC=C(C)C)c4)c(=O)oc3c2C)OC1(C)C ?
output: active

***
input: Hi team, can someone confirm the assay call for COc1cc2cc(C(=O)CCC(=O)O)sc2cc1OC + COC1C(OC(N)=O)C(O)C(Oc2ccc3c(O)c(NC(=O)c4ccc(O)c(CC=C(C)C)c4)c(=O)oc3c2C)OC1(C)C ?
output: inactive

input: And CC1COCCN1c1cc(C2(S(C)(=N)=O)CC2)nc(-c2ccnc3[nH]ccc23)n1 (configuration not stated) + COC1C(OC(N)=O)C(O)C(Oc2ccc3c(O)c(NC(=O)c4ccc(O)c(CC=C(C)C)c4)c(=O)oc3c2C)OC1(C)C ?
output: inactive

---

Test system: 855422-203-R-J1-PDC complex spheroid viability
Test: Anticancer human tumor 855422-203-R-J1-PDC cell line growth inhibition [POLQ];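 note: spheroids exposed to compounds for seven days before readout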
Conditions: curve of first compound; second compound 1 µM
Listing of recorded IC50 by entry.

Worked cases, IC50 given:
input: Could you tell me which IC50 is on file for Cn1ncnc1[C@H]1c2n[nH]c(=O)c3cc(F)cc(c23)N[C@@H]1c1ccc(F)cc1 + Cc1cccc(N(C)C(=O)C2C(O)CCN2c2nc(C)cc(C(F)(F)F)c2C#N)c1 ?
output: > 0.1 µM

input: And COc1cc2cc(C(=O)CCC(=O)O)sc2cc1OC + Nc1ccc(C#CCN(C(=O)Cc2ncc(C(F)(F)F)cc2C(F)(F)F)c2ccc(F)cc2)nn1 ?
output: > 10 µM

input: And Cn1ncnc1[C@H]1c2n[nH]c(=O)c3cc(F)cc(c23)N[C@@H]1c1ccc(F)cc1 + Nc1ccc(C#CCN(C(=O)Cc2ncc(C(F)(F)F)cc2C(F)(F)F)c2ccc(F)cc2)nn1 ?
output: > 0.1 µM

input: And CCc1c2c(nc3ccc(O)cc13)-c1cc3c(c(=O)n1C2)COC(=O)[C@]3(O)CC + Cc1cccc(N(C)C(=O)C2C(O)CCN2c2nc(C)cc(C(F)(F)F)c2C#N)c1 ?
output: < 0.00316 µM

***
input: Could you tell me which IC50 is on file for Cn1ncnc1[C@H]1c2n[nH]c(=O)c3cc(F)cc(c23)N[C@@H]1c1ccc(F)cc1 + COC1C(OC(N)=O)C(O)C(Oc2ccc3c(O)c(NC(=O)c4ccc(O)c(CC=C(C)C)c4)c(=O)oc3c2C)OC1(C)C ?
output: > 0.1 µM

input: And O=C(c1cc(Cc2n[nH]c(=O)c3ccccc23)ccc1F)N1CCN(C(=O)C2CC2)CC1 + Cc1cccc(N(C)C(=O)C2C(O)CCN2c2nc(C)cc(C(F)(F)F)c2C#N)c1 ?
output: > 10 µM

input: And CCc1cc2c(N3CCc4c(cc(Cn5ccnc5)cc4-c4cn(C)nc4C(F)(F)F)C3=O)ccnc2c(OC)n1 + Cc1cccc(N(C)C(=O)C2C(O)CCN2c2nc(C)cc(C(F)(F)F)c2C#N)c1 ?
output: > 10 µM

---

Test system: 855422-203-R-J1-PDC complex spheroid viability
Test: Anticancer human tumor 855422-203-R-J1-PDC cell line growth inhibition [POLQ];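 note: spheroids exposed to compounds for seven days before readout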
Conditions: second compound 10 µM; first compound 1 µM; stronger effect = lower value
Listing of recorded viability, T/C by entry.
# unit: % | format: bare number

Worked cases, viability, T/C given:
input: Could you tell me which viability, T/C is on file for C#Cc1c(F)ccc2cc(O)cc(-c3ncc4c(N5CC6CCC(C5)N6)nc(OCC56CCCN5CC(F)C6)nc4c3F)c12 (stereo unspecified) + Cc1cccc(N(C)C(=O)C2C(O)CCN2c2nc(C)cc(C(F)(F)F)c2C#N)c1 ?
output: 94.3

input: And CC1COCCN1c1cc(C2(O)CC3CCC(C2)O3)c2cnn(-c3ccn[nH]3)c2n1 (stereo unspecified) + Cc1cccc(N(C)C(=O)C2C(O)CCN2c2nc(C)cc(C(F)(F)F)c2C#N)c1 ?
output: 9.77

input: And COc1cc2cc(C(=O)CCC(=O)O)sc2cc1OC + Cc1cccc(N(C)C(=O)C2C(O)CCN2c2nc(C)cc(C(F)(F)F)c2C#N)c1 ?
output: 114

***
input: Could you tell me which viability, T/C is on file for CCc1c2c(nc3ccc(O)cc13)-c1cc3c(c(=O)n1C2)COC(=O)[C@]3(O)CC + Cc1cccc(N(C)C(=O)C2C(O)CCN2c2nc(C)cc(C(F)(F)F)c2C#N)c1 ?
output: 2.09

input: And CC1COCCN1c1cc(C2(O)CC3CCC(C2)O3)c2cnn(-c3ccn[nH]3)c2n1 (stereo unspecified) + Nc1ccc(C#CCN(C(=O)Cc2ncc(C(F)(F)F)cc2C(F)(F)F)c2ccc(F)cc2)nn1 ?
output: 11.1

input: And CCc1cc2c(N3CCc4c(cc(Cn5ccnc5)cc4-c4cn(C)nc4C(F)(F)F)C3=O)cc(C)nc2c(OC)n1 + Cc1cccc(N(C)C(=O)C2C(O)CCN2c2nc(C)cc(C(F)(F)F)c2C#N)c1 ?
output: 98.2

input: And CNCc1ccc(-c2[nH]c3cc(F)cc4c3c2CCNC4=O)cc1 + Nc1ccc(C#CCN(C(=O)Cc2ncc(C(F)(F)F)cc2C(F)(F)F)c2ccc(F)cc2)nn1 ?
output: 100

input: And C=CC(=O)N1CCN(c2nc(=O)n(-c3c(C)ccnc3C(C)C)c3nc(-c4c(O)cccc4F)c(F)cc23)C(C)C1 (stereo unspecified) + Nc1ccc(C#CCN(C(=O)Cc2ncc(C(F)(F)F)cc2C(F)(F)F)c2ccc(F)cc2)nn1 ?
output: 117

input: And O=C(c1cc(Cc2n[nH]c(=O)c3ccccc23)ccc1F)N1CCN(C(=O)C2CC2)CC1 + Nc1ccc(C#CCN(C(=O)Cc2ncc(C(F)(F)F)cc2C(F)(F)F)c2ccc(F)cc2)nn1 ?
output: 99.6

input: And Nc1ccn(C2OC(CO)C(O)C2(F)F)c(=O)n1 (stereo unspecified) + COC1C(OC(N)=O)C(O)C(Oc2ccc3c(O)c(NC(=O)c4ccc(O)c(CC=C(C)C)c4)c(=O)oc3c2C)OC1(C)C ?
output: 11.4

input: And CCc1cc2c(N3CCc4c(cc(Cn5ccnc5)cc4-c4cn(C)nc4C(F)(F)F)C3=O)cc(C)nc2c(OC)n1 + Nc1ccc(C#CCN(C(=O)Cc2ncc(C(F)(F)F)cc2C(F)(F)F)c2ccc(F)cc2)nn1 ?
output: 77.4

input: And CCc1cc2c(N3CCc4c(cc(Cn5ccnc5)cc4-c4cn(C)nc4C(F)(F)F)C3=O)ccnc2c(OC)n1 + Nc1ccc(C#CCN(C(=O)Cc2ncc(C(F)(F)F)cc2C(F)(F)F)c2ccc(F)cc2)nn1 ?
output: 111

input: And COc1ccc([C@@H](O)c2cc(-c3ncnc4cc(N5CCOCC5)ccc34)c(F)cc2Cl)nn1 + Cc1cccc(N(C)C(=O)C2C(O)CCN2c2nc(C)cc(C(F)(F)F)c2C#N)c1 ?
output: 66.8

input: And O=C(Nc1ccc(O)c(NS(=O)(=O)c2ccc(F)cc2)c1)c1ccc(-c2ccccc2)cc1 + Nc1ccc(C#CCN(C(=O)Cc2ncc(C(F)(F)F)cc2C(F)(F)F)c2ccc(F)cc2)nn1 ?
output: 88.7

input: And CCCS(=O)(=O)Nc1ccc(F)c(C(=O)c2c[nH]c3ncc(-c4ccc(Cl)cc4)cc23)c1F + COC1C(OC(N)=O)C(O)C(Oc2ccc3c(O)c(NC(=O)c4ccc(O)c(CC=C(C)C)c4)c(=O)oc3c2C)OC1(C)C ?
output: 116

input: And CC1COCCN1c1cc(C2(S(C)(=N)=O)CC2)nc(-c2ccnc3[nH]ccc23)n1 (stereo unspecified) + Nc1ccc(C#CCN(C(=O)Cc2ncc(C(F)(F)F)cc2C(F)(F)F)c2ccc(F)cc2)nn1 ?
output: 152
